Data provenance is patent CN116693678A.

Listed here are binders together with their documented OD值 (450nm, 参考630nm).
target: 肺炎支原体天然抗原(购自Microbix) (Mycoplasma pneumoniae); test: indirect ELISA on coated antigen (2 ug/ml), antibody 12.35 ng/ml
Return type: number; implicit unit OD.

Record excerpt, results attached:
>  <binder>
Anti-MP-11F5mut5 (antibody, mouse IgG1, kappa, V domains shown) VH: QVQLQQSGPELVKPGALVKISCKASGYTFTSFDINWVKQRPGQGLEWIGYIYPGDGSTKYNEKFKGKATLTADKSSSTAYMQFSSLTSENSAVYFCTRKGGWGAGHSAMDYWGQGTSVTVSS VL: DIQMTQTTSSLSASLGDRVTISCRASQAISNYLNWYQQRPDGTVKLLIYYTSRKNSGAPSRFSGSGSGTDYSLTISNIDQEDIATYFCQQGYTTPYTFGGGTKLEIKR

>  <result.number>
2.02

$$$$
>  <binder>
Anti-MP-11F5mut8 (antibody, mouse IgG1, kappa, V domains shown) VH: QVQLQQSGPELVKPGALVKISCKASGYTFTSFDINWVKQRPGQGLEWIGYIYPGDGSTKYNEKFKGKATLTADKSSSTAYMQFSSLTSEDSAVYFCTRKGGWGAGHSAMDYWGQGTSVTVSS VL: DIQMTQTTSSLSASLGDRVTISCRASQAISNYINWYQQRPDGTVKLLIYYTSRKNSGAPSRFSGSGSGTDYSLTISNIDQEDIATYFCQQGYTTPYTFGGGTKLEIKR

>  <result.number>
1.93

$$$$

Field: next binder
Task item: For Anti-MP-11F5mut7 (antibody, mouse IgG1, kappa, V domains shown) VH: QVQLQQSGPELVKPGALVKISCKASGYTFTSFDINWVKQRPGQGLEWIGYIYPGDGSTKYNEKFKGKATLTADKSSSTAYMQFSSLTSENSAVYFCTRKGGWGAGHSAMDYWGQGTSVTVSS VL: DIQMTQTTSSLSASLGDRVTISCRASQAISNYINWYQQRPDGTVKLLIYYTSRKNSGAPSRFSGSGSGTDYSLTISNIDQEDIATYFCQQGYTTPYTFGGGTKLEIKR , what is its reported OD值 (450nm, 参考630nm)?
Reply: 1.91
